test: melting temperature; melt of duplexes; details: sodium 0.0675 M; strand 1 µM
measure: Tm
Quick note: unit goes after the number.

> print(dat)
                                  substance    value
1  CGACGTGCAATATGTGCTG+CAGCACATCACGCACGTCG ((((((((...((((((((+))))))))...))))))))  46.8 °C
2  CGACGTGCGTGATGTGCTG+CAGCACATGCTGCACGTCG ((((((((...((((((((+))))))))...))))))))  49.8 °C

Attention now shifts to the item below.
Tm reported for this substance CGACGTGCGCTATGTGCTG+CAGCACATGCGGCACGTCG ((((((((...((((((((+))))))))...)))))))) : 54 °C
